Could you please report measured log10 of IC90 for the items listed next?
tested on: Plasmodium falciparum; assay: In vitro antimalarial activity for chloroquine-sensitive Plasmodium falciparum in schizont maturation assay; format: functional
Annotation: log10 of IC90, µM basis.

Worked cases, log10 of IC90 given:
1. O=C1C2CC/C=C\CCC2N1Cc1ccccc1 (stereo not given) ... 1.03
2. O=C1C2CCCC2N1Cc1ccccc1 (stereo not given) ... 1.05
3. O=C1C2CCCCCCC2N1Cc1ccccc1 (stereo not given) ... 1.27
4. O=C1NC2CCCC12 (stereo not given) ... 1.50

The following compounds each have a reported value; give each one's log10 of IC90.
1. O=C1C2CC=CC=CC2N1Cc1ccccc1 (stereo not given)
2. O=C1C2CC=CCC2N1Cc1ccccc1 (stereo not given)
3. O=C1NC2C=CC=CCC12 (stereo not given)
4. O=C1NC2CC=CCC12 (stereo not given)
5. O=C1NC2CCCCCCC12 (stereo not given)
6. O=C1NC2CC/C=C\CCC12 (stereo not given)

OUT:
[0.45, 0.75, 1.16, 1.29, 1.53, 1.40]
